growth values by entry
- Tested on: HOP-62 NSCLC
- assayDetails: NCI-60 one-dose screen, 48 h (100 = growth as untreated, 0 = no growth, -100 = all killed)
- runConditions: 10 µM
This is part of a sample that, as a whole, favours compounds with a hit. Of some 83,000 tested, about 20% had one in any assay.
observationType: growth (%)

molecule	testSystem	uom	measuredNumber
NC1CCC(Nc2nc(NCc3ccc(-c4ccco4)nc3)c3ncn(C4CCCC4)c3n2)CC1 (stereo unspecified)	HOP-62 NSCLC	%	-17.1
Cc1ccc(C)c2c1sc1nc3n[nH]c(N)c3c(=N)n12	HOP-62 NSCLC	%	104
CCCCN(CCCC)c1ccc(C(=NC(C)CCCN(CC)CC)c2ccc(N(C)C)cc2)cc1 (stereo unspecified)	HOP-62 NSCLC	%	-80.4
COc1cc(/C=C/C(=O)c2cc(-c3ccc(C(F)(F)F)cc3)ccc2O)cc(OC)c1OC	HOP-62 NSCLC	%	98.7
CC(=O)Oc1c(C)c(C)c2c(c1C)CCC(C)(CC(=O)OCCCCCCCCCCC[P+](c1ccccc1)(c1ccccc1)c1ccccc1)O2 (stereo unspecified)	HOP-62 NSCLC	%	-84.7
N#Cc1ncc(-c2cc(F)ccc2F)c(NC2CCCCCC2)n1	HOP-62 NSCLC	%	65.9
COc1ccc2c(=O)cc(C(Cl)(Cl)Cl)oc2c1	HOP-62 NSCLC	%	-14.8
COc1cc(/C=C2\C(=O)Nc3cc(C)c(O)cc32)cc(OC)c1OC	HOP-62 NSCLC	%	85.7
[O-]c1c[n+](-c2ccc(Cl)cc2)no1	HOP-62 NSCLC	%	91.3
COc1cc(C2c3cc4c(cc3C(O)C(CO)C2CO)OCO4)cc(OC)c1OC (stereo unspecified)	HOP-62 NSCLC	%	40.7
O=C1/C(=C/c2ccc(O)cc2)Oc2ccc(Cl)cc21	HOP-62 NSCLC	%	85.6
